target: UniProtKB P05067; assay: Inhibition of amyloid beta (1 to 42) (unknown origin) aggregation after 24 hrs by thioflavin T fluorescence assay
Endpoint Name: log10 IC50 (log10 of the value in µM)

| Compound | Reported |
| --- | --- |
| O=C(/C=C/c1ccc(O)c(O)c1)N[C@@H](Cc1ccc(O)cc1)C(=O)O | 1.94 |
| O=C(/C=C/c1ccc(O)c(O)c1)N[C@@H](Cc1ccc(O)c(O)c1)C(=O)O | 0.76 |
| O=C(/C=C/c1ccc(O)c(O)c1)N[C@@H](Cc1ccccc1)C(=O)O | 1.86 |
| O=C(/C=C/c1ccc(O)c(O)c1)N[C@H](Cc1ccc(O)c(O)c1)C(=O)O | 0.20 |
| COC(=O)[C@H](Cc1ccc(O)c(O)c1)NC(=O)/C=C/c1ccc(O)c(O)c1 [N-CAFFEOYL-DOPA METHYL ESTER] | 0.69 |

* * *

Each item that follows carries a reported IC50.
target: Amyloid-beta precursor protein (Homo sapiens, UniProt P05067); test: Inhibition of amyloid beta (1 to 42) (unknown origin) aggregation after 24 hrs by thioflavin T fluorescence assay
Sequence (P05067 whole entry): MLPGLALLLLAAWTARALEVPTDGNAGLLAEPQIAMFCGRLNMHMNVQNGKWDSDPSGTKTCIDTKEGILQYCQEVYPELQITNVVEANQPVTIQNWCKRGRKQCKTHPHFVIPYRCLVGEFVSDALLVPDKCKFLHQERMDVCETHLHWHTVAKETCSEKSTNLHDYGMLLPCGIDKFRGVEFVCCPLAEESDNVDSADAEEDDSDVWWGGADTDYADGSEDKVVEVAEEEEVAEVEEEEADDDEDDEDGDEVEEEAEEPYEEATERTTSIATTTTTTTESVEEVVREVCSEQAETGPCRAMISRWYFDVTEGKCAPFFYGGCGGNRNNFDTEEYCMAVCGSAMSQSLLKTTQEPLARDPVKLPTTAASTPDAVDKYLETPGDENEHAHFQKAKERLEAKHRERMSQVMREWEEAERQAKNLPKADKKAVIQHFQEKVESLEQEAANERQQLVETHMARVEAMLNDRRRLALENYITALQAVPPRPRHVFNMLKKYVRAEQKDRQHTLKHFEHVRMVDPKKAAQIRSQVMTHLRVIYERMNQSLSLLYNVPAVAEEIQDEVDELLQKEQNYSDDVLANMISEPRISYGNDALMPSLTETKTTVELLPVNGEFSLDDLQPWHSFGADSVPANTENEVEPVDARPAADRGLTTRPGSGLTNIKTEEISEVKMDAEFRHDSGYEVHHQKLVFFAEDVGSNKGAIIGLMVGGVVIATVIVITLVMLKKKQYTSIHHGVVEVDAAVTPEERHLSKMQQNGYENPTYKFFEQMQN

| Chemical String | Subject Of Test | Relation Sign | IC50 [µM] |
| --- | --- | --- | --- |
| O=C(/C=C/c1ccccc1)N[C@@H](Cc1ccc(O)c(O)c1)C(=O)O | Amyloid-beta precursor protein (Homo sapiens, UniProt P05067) | = | 22.7 |
| COC(=O)[C@H](Cc1ccc(OC)c(OC)c1)NC(=O)/C=C/c1ccc(OC)c(OC)c1 | Amyloid-beta precursor protein (Homo sapiens, UniProt P05067) | > | 100 |
| O=C(CCc1ccc(O)c(O)c1)N[C@@H](Cc1ccc(O)c(O)c1)C(=O)O | Amyloid-beta precursor protein (Homo sapiens, UniProt P05067) | = | 8.7 |
